- System: human leukemia HL-60 cells
- assayNotes: Proliferation inhibition of human leukemia HL-60 cells, MTT method
- Format: cell-based
- assaySetup: concentration 1 μM, 48 h incubation, OPTI-MEM medium
Assign Met to entries whose Proliferation inhibitory effect on human leukemia HL-60 cell (%) meets or exceeds 40%; assign Not met to the rest.

Exam item: Is it the case that COC=C(C(=O)OC)c1ccccc1COc1ccc2cc(C#N)c(=O)oc2c1 [Compound 28-24] has Proliferation inhibitory effect on human leukemia HL-60 cell (%) reaching or exceeding 40%?
Marked response: Not met

Exam item: Kindly determine if Proliferation inhibitory effect on human leukemia HL-60 cell (%) recorded for CCCCc1c(C)c2ccc(OCc3ccccc3/C(=C\OC)C(=O)OC)cc2oc1=O [Compound 28-72, coumoxystrobin] is above or exactly 40%.
Marked response: Met

Exam item: Confirm if Proliferation inhibitory effect on human leukemia HL-60 cell (%) reported for the compound COC=C(C(=O)OC)c1ccccc1COc1ccc2c(C)c(C)c(=O)oc2c1C [Compound 28-6] is 40% or above.
Marked response: Met

Exam item: Reported Proliferation inhibitory effect on human leukemia HL-60 cell (%) reaches at least 40% for CCCc1c(C)c2ccc(OCc3ccccc3C(=COC)C(=O)OC)cc2oc1=O [Compound 28-27] ?
Marked response: Met

Exam item: Hi, just wondering whether COC=C(C(=O)OC)c1ccccc1COc1ccc2c3c(c(=O)oc2c1)CCC3 [Compound 28-125] shows Proliferation inhibitory effect on human leukemia HL-60 cell (%) of 40% or higher.
Marked response: Met

Exam item: Hello, I need to know if COC=C(C(=O)OC)c1ccccc1COc1ccc2c(-c3ccc(Cl)nc3)cc(=O)oc2c1 [Compound 28-124] has measured Proliferation inhibitory effect on human leukemia HL-60 cell (%) not below 40%. Thanks!
Marked response: Not met

Exam item: Form field: Proliferation inhibitory effect on human leukemia HL-60 cell (%) at least 40%? Entry: COC=C(C(=O)OC)c1ccccc1COc1ccc2c(C(F)(F)F)cc(=O)oc2c1 [Compound 28-7]
Marked response: Met
